Consider the following binders and their measured relative activity (to native hormone) readings.
Target: glucagon receptor (UniProt P47871 26-477, limits assumed)
Sequence (P47871 26-477 limits assumed): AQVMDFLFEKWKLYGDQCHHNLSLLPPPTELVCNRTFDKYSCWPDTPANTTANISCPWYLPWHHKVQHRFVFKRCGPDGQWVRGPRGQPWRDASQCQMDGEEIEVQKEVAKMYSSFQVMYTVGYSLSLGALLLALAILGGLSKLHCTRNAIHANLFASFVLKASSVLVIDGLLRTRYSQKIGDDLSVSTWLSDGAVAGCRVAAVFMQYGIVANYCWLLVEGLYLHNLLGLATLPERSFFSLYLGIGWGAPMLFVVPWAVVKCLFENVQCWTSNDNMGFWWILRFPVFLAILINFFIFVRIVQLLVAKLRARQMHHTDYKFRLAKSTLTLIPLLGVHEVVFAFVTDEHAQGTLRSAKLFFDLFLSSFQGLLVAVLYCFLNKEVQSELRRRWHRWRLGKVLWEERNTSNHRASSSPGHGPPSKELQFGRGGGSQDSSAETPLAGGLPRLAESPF
Assay: cell-based or functional assay
Where no end group is shown, it is not given here. [ ]: non-standard residue; d: D form. Aib = CC(C)(N)C(=O)O
Quick reminder: number only, in %, skip the unit.

- Binder: "Y[Aib]EGTFISDYSIAMDKIHQQDFVNWLLAQKGKKNWLKHNITQ-NH2 (not fully specified) [mt-217 (SEQ ID NO: 19)]"
  Measurement units: "%"
  Quantitative readout: 0.82

In: // query relative activity (to native hormone) value for entry Y[Aib]PGTFISDYSIAMDKIHQQDFVNWLLAQKGKKNWLKHNITQ-NH2 (not fully specified) [mt-219 (SEQ ID NO: 21)]
Out: 0.65

In: And the next one, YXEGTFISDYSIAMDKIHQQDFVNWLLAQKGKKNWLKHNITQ (not fully specified; AIB at position 2; C-terminal amide; Glu16-Lys20 lactam in some Table 3 peptides, absent in others (which ones is not stated)) [mt-218 (SEQ ID NO: 20)] ?
Out: 0.7

In: And the next one, Y[Aib]EGTFISDYSIAMDKIHQQDFVCWLLAQKGKKNWLKHNITQ-NH2 (not fully specified) [mt-220 (SEQ ID NO: 22)] ?
Out: 1.18
